# experimentalProtocol: Kinetic solubility of the compound in 10 mM of phosphate buffer at pH 7.2 by CLND method
# Format: physicochemical
# conditionContext: read-out: Kinetic_solubility
measurementName: solubility kinetic (µM)
Report the value in µM with no unit label.

Worked examples, 4 compounds total:
COC(=O)N[C@H](C(=O)N1CCC[C@H]1C(=O)Nc1ccc([C@H]2CC[C@H](c3ccc(NC(=O)[C@@H]4CCCN4C(=O)[C@@H](NC(=O)OC)[C@H]4CCOC4)cc3)N2c2ccc(F)cc2)cc1)[C@H]1CCOC1: 8.5
COC(=O)N[C@H](C(=O)N1CCC[C@H]1C(=O)Nc1ccc([C@H]2CC[C@H](c3ccc(NC(=O)[C@@H]4CCCN4C(=O)[C@@H](NC(=O)OC)C(C)(C)C)cc3)N2c2ccc(C(C)(C)C)cc2)cc1)C(C)(C)C: 2.2
COC(=O)N[C@H](C(=O)N1CCC[C@H]1C(=O)Nc1ccc([C@@H]2CC[C@@H](c3ccc(NC(=O)[C@@H]4CCCN4C(=O)[C@@H](NC(=O)OC)[C@@H](C)OC)cc3)N2c2ccc(F)cc2)cc1)[C@@H](C)OC: 9.6
COC(=O)N[C@H](C(=O)N1CCC[C@H]1C(=O)Nc1ccc([C@H]2CC[C@H](c3ccc(NC(=O)[C@@H]4CCCN4C(=O)[C@@H](NC(=O)OC)C(C)C)cc3)N2c2ccc(F)cc2)cc1)C(C)C: 6

Ask: Can you share its solubility kinetic? I mean this compound: COC(=O)N[C@H](C(=O)N1CCC[C@H]1C(=O)Nc1ccc([C@@H]2CC[C@@H](c3ccc(NC(=O)[C@@H]4CCCN4C(=O)[C@@H](NC(=O)OC)C(C)C)cc3)N2c2ccc(F)cc2)cc1)C(C)C
Reply: 4.1

---

# Lookup of reported Cmax keyed by entry
# experimentalProtocol: Cmax in rat at 3 mg/kg, po
# Type: ADME, organism-based
# Set-up: dose 3 mg/kg, route oral
# conditionContext: in vivo
Your answer is read as ng/mL, so omit the unit and give the number.

COC(=O)N[C@H](C(=O)N1CCC[C@H]1C(=O)Nc1ccc([C@H]2CC[C@H](c3ccc(NC(=O)[C@@H]4CCCN4C(=O)[C@@H](NC(=O)OC)C(C)(C)C)cc3)N2c2ccc(F)cc2)cc1)C(C)(C)C: 960
COC(=O)N[C@H](C(=O)N1CCC[C@H]1C(=O)Nc1ccc([C@@H]2CC[C@@H](c3ccc(NC(=O)[C@@H]4CCCN4C(=O)[C@@H](NC(=O)OC)C(C)C)cc3)N2c2ccc(C(F)(F)F)cc2)cc1)C(C)C: 30

Ask: Recorded Cmax for COC(=O)N[C@H](C(=O)N1CCC[C@H]1C(=O)Nc1ccc([C@H]2CC[C@H](c3ccc(NC(=O)[C@@H]4CCCN4C(=O)[C@@H](NC(=O)OC)C(C)(C)C)cc3)N2c2ccc(C(C)(C)C)cc2)cc1)C(C)(C)C , please?
Reply: 90

---

# experimentalProtocol: Half life in rat at 3 mg/kg, po
# Type: ADME, organism-based
# Parameters: dose 3 mg/kg, route oral
# conditionContext: in vivo
measurementName: half-life (h)
Note: unit h is implicit; provide only the numeric part.

COC(=O)N[C@H](C(=O)N1CCC[C@H]1C(=O)Nc1ccc([C@H]2CC[C@H](c3ccc(NC(=O)[C@@H]4CCCN4C(=O)[C@@H](NC(=O)OC)[C@H]4CCOC4)cc3)N2c2ccc(F)cc2)cc1)[C@H]1CCOC1: 0.5
COC(=O)N[C@H](C(=O)N1CCC[C@H]1C(=O)Nc1ccc([C@H]2CC[C@H](c3ccc(NC(=O)[C@@H]4CCCN4C(=O)[C@@H](NC(=O)OC)C(C)C)cc3)N2c2ccc(F)cc2)cc1)C(C)C: 2.8
COC(=O)N[C@H](C(=O)N1CCC[C@H]1C(=O)Nc1ccc([C@@H]2CC[C@@H](c3ccc(NC(=O)[C@@H]4CCCN4C(=O)[C@@H](NC(=O)OC)[C@H]4CCOC4)cc3)N2c2ccc(F)cc2)cc1)[C@H]1CCOC1: 0.6
COC(=O)N[C@H](C(=O)N1CCC[C@H]1C(=O)Nc1ccc([C@H]2CC[C@H](c3ccc(NC(=O)[C@@H]4CCCN4C(=O)[C@@H](NC(=O)OC)C(C)C)cc3)N2c2ccc(C(F)(F)F)cc2)cc1)C(C)C: 4.9

Ask: Name the reported half-life value associated with the compound COC(=O)N[C@H](C(=O)N1CCC[C@H]1C(=O)Nc1ccc([C@@H]2CC[C@@H](c3ccc(NC(=O)[C@@H]4CCCN4C(=O)[C@@H](NC(=O)OC)[C@@H](C)OC)cc3)N2c2ccc(F)cc2)cc1)[C@@H](C)OC
Reply: 1.1

---

Each entry below carries its reported Cmax.
# experimentalProtocol: Cmax in dog at 2.5 mg/kg, po
# Format: ADME, organism-based, Canis lupus familiaris
# Parameters: dose 2.5 mg/kg, route oral
# conditionContext: in vivo
Numeric only. Scale: ng/mL

# count of solved cases: 3
COC(=O)N[C@H](C(=O)N1CCC[C@H]1C(=O)Nc1ccc([C@H]2CC[C@H](c3ccc(NC(=O)[C@@H]4CCCN4C(=O)[C@@H](NC(=O)OC)C(C)(C)C)cc3)N2c2ccc(F)cc2)cc1)C(C)(C)C: 1070
COC(=O)N[C@H](C(=O)N1CCC[C@H]1C(=O)Nc1ccc([C@@H]2CC[C@@H](c3ccc(NC(=O)[C@@H]4CCCN4C(=O)[C@@H](NC(=O)OC)C(C)C)cc3)N2c2ccc(C(C)(C)C)cc2)cc1)C(C)C: 640
COC(=O)N[C@H](C(=O)N1CCC[C@H]1C(=O)Nc1ccc([C@@H]2CC[C@@H](c3ccc(NC(=O)[C@@H]4CCCN4C(=O)[C@@H](NC(=O)OC)C(C)C)cc3)N2c2ccc(C(F)(F)F)cc2)cc1)C(C)C: 70

Ask: For the compound shown here, COC(=O)N[C@H](C(=O)N1CCC[C@H]1C(=O)Nc1ccc([C@H]2CC[C@H](c3ccc(NC(=O)[C@@H]4CCCN4C(=O)[C@@H](NC(=O)OC)C(C)C)cc3)N2c2ccc(C(F)(F)F)cc2)cc1)C(C)C , give the reported Cmax.
Reply: 50

Ask: I'd like to know its Cmax. The compound in question is COC(=O)N[C@H](C(=O)N1CCC[C@H]1C(=O)Nc1ccc([C@H]2CC[C@H](c3ccc(NC(=O)[C@@H]4CCCN4C(=O)[C@@H](NC(=O)OC)C(C)C)cc3)N2c2ccc(F)cc2)cc1)C(C)C
Reply: 420

---

# experimentalProtocol: Oral bioavailability in dog at 2.5 mg/kg
# Assay type: ADME, organism-based, Canis lupus familiaris
# conditionContext: in vivo
Mark MET for reported bioavailability of 6% or greater; mark NOT MET for anything smaller.

Answered cases to consult:
COC(=O)N[C@H](C(=O)N1CCC[C@H]1C(=O)Nc1ccc([C@H]2CC[C@H](c3ccc(NC(=O)[C@@H]4CCCN4C(=O)[C@@H](NC(=O)OC)C(C)(C)C)cc3)N2c2ccc(F)cc2)cc1)C(C)(C)C: MET
COC(=O)N[C@H](C(=O)N1CCC[C@H]1C(=O)Nc1ccc([C@@H]2CC[C@@H](c3ccc(NC(=O)[C@@H]4CCCN4C(=O)[C@@H](NC(=O)OC)C(C)C)cc3)N2c2ccc(C(F)(F)F)cc2)cc1)C(C)C: NOT MET
COC(=O)N[C@H](C(=O)N1CCC[C@H]1C(=O)Nc1ccc([C@H]2CC[C@H](c3ccc(NC(=O)[C@@H]4CCCN4C(=O)[C@@H](NC(=O)OC)C(C)C)cc3)N2c2ccc(C(F)(F)F)cc2)cc1)C(C)C: NOT MET

Ask: Could you tell me if the measured bioavailability of COC(=O)N[C@H](C(=O)N1CCC[C@H]1C(=O)Nc1ccc([C@@H]2CC[C@@H](c3ccc(NC(=O)[C@@H]4CCCN4C(=O)[C@@H](NC(=O)OC)C(C)C)cc3)N2c2ccc(C(C)(C)C)cc2)cc1)C(C)C reaches 6% or more?
Reply: MET

Ask: # check: bioavailability of COC(=O)N[C@H](C(=O)N1CCC[C@H]1C(=O)Nc1ccc([C@H]2CC[C@H](c3ccc(NC(=O)[C@@H]4CCCN4C(=O)[C@@H](NC(=O)OC)C(C)C)cc3)N2c2ccc(F)cc2)cc1)C(C)C is greater than or equal to 6%
Reply: MET

---

Listed here: items and their measured logD.
# experimentalProtocol: Lipophilicity, log D of the compound at pH 7.4 by HPLC analysis
# Format: physicochemical
# conditionContext: buffer
// return a plain number; no unit text

COC(=O)N[C@H](C(=O)N1CCC[C@H]1C(=O)Nc1ccc([C@@H]2CC[C@@H](c3ccc(NC(=O)[C@@H]4CCCN4C(=O)[C@@H](NC(=O)OC)[C@H]4CCOC4)cc3)N2c2ccc(F)cc2)cc1)[C@H]1CCOC1: 3.2
COC(=O)N[C@H](C(=O)N1CCC[C@H]1C(=O)Nc1ccc([C@@H]2CC[C@@H](c3ccc(NC(=O)[C@@H]4CCCN4C(=O)[C@@H](NC(=O)OC)[C@@H](C)OC)cc3)N2c2ccc(F)cc2)cc1)[C@@H](C)OC: 3

Ask: Returns the measured logD for the input compound. Input: COC(=O)N[C@H](C(=O)N1CCC[C@H]1C(=O)Nc1ccc([C@@H]2CC[C@@H](c3ccc(NC(=O)[C@@H]4CCCN4C(=O)[C@@H](NC(=O)OC)C(C)C)cc3)N2c2ccc(C(C)(C)C)cc2)cc1)C(C)C
Reply: 5.4

Ask: Look up logD: COC(=O)N[C@H](C(=O)N1CCC[C@H]1C(=O)Nc1ccc([C@@H]2CC[C@@H](c3ccc(NC(=O)[C@@H]4CCCN4C(=O)[C@@H](NC(=O)OC)C(C)C)cc3)N2c2ccc(F)cc2)cc1)C(C)C
Reply: 4.6

Ask: So what's the measured logD for this one? COC(=O)N[C@H](C(=O)N1CCC[C@H]1C(=O)Nc1ccc([C@H]2CC[C@H](c3ccc(NC(=O)[C@@H]4CCCN4C(=O)[C@@H](NC(=O)OC)C(C)C)cc3)N2c2ccc(F)cc2)cc1)C(C)C
Reply: 4.6

Hello, the source for this data is ChEMBL document CHEMBL3124779, in case you need it.
